Compiled literature IC50, tested on human PD-L1 (Homo sapiens (Human), UniProt Q9NZQ7).

Would you please look over these solved cases?
>  <COMPOUND>
COc1nc(-c2cccc(-c3cccc(NC(=O)c4cn(C)c(=O)n(C)c4=O)c3C)c2Cl)ccc1CN1CC2(CNC(=O)N2)C1

>  <VALUE MEASURED>
< 10 nM

$$$$
>  <COMPOUND>
Cc1nc(Nc2cccc(-c3cccc(-c4ccc(CNC[C@@H]5CCC(=O)N5)c(C)n4)c3Cl)c2C)c2ncccc2n1

>  <VALUE MEASURED>
< 10 nM

$$$$
>  <COMPOUND>
COc1nc(-c2cccc(-c3cccc(Nc4nc(C)nc5cccnc45)c3C)c2C#N)ccc1CN[C@@H]1CCOC[C@@H]1O

>  <VALUE MEASURED>
< 10 nM

$$$$
>  <COMPOUND>
CCOc1cc(NC2CCc3c(-c4cccc(OCCCN5CCC(C)(F)CC5)c4Cl)cccc32)c(Cl)cc1CN[C@H]1CCC(=O)NC1 (stereo partly drawn)

>  <VALUE MEASURED>
500 to 20000 nM

$$$$
>  <COMPOUND>
CCc1nc(-c2cccc(-c3cccc(NC(=O)c4cn(C)c(=O)n(C)c4=O)c3Cl)c2Cl)cnc1CNC[C@@H]1CCC(=O)N1

>  <VALUE MEASURED>
< 10 nM

$$$$

Exercise: Please tell me: IC50 of "COc1nc(-c2cccc(-c3cccc(NC(=O)c4cn(C)c(=O)n(C)c4=O)c3Cl)c2Cl)ccc1CNCCO" , system human PD-L1 (Homo sapiens (Human), UniProt Q9NZQ7)?
Key: < 10 nM

Exercise: API: value(readout= IC50, system= human PD-L1 (Homo sapiens (Human), UniProt Q9NZQ7), query= "COc1nc(OCc2cccc(-c3cccc(COc4ccc(CN5C[C@@H](O)C[C@H]5C(=O)O)c(OC)n4)c3F)c2C)ccc1CN1C[C@@H](O)C[C@H]1C(=O)O" )
Key: < 10 nM

Exercise: Which measured IC50 belongs to COc1nc(OCc2cccc(-c3cccc(COc4ccc(CN5CCC6(CCC(=O)N6)C5)c(OC)n4)c3C)c2C)ccc1CN1CCC2(CCC(=O)N2)C1 (stereo not drawn) , tested on human PD-L1 (Homo sapiens (Human), UniProt Q9NZQ7)?
Key: < 10 nM

Exercise: Hello, I am looking for reported IC50 with human PD-L1 (Homo sapiens (Human), UniProt Q9NZQ7) for "COc1nc(OCc2cccc(-c3ccccc3)c2C)ccc1CN" . Could you help?
Key: 100 to 1000 nM

---

Assay read-out pIC50 on human PD-L1 (Homo sapiens (Human)); records merged from the literature.
pIC50: −log10 of the molar value.

Some solved entries appear below for comparison.
>  <COMPOUND>
CCOc1cc(NC2CCc3c(-c4cccc(OCCCN5CCC(C)(F)CC5)c4Cl)cccc32)c(Cl)cc1CN1CCC(O)CC1 (stereo not drawn)

>  <pIC50>
4.70 to 6.30

$$$$
>  <COMPOUND>
COc1nc(-c2cccc(-c3cccc(NC(=O)c4cn(C)c(=O)n(C)c4=O)c3Cl)c2Cl)ccc1CNC[C@H]1CCC(=O)N1

>  <pIC50>
> 8.00

$$$$
>  <COMPOUND>
COc1nc(-c2cccc(-c3cccc(NC(=O)c4cn(C)c(=O)n(C)c4=O)c3Cl)c2Cl)ccc1CNC[C@H](C)O

>  <pIC50>
> 8.00

$$$$

Exercise: human PD-L1 (Homo sapiens (Human)) / pIC50 / "COc1nc(OCc2cccc(-c3cccc(COc4ccc(CN5C[C@H](O)[C@@H](O)C5)c(OC)n4)c3Cl)c2Cl)ccc1CN1C[C@H](O)[C@@H](O)C1" : value?
Key: > 8.00

Exercise: API: value(readout= pIC50, system= human PD-L1 (Homo sapiens (Human)), query= COc1nc(OCc2cccc(-c3cccc(COc4ccc(CNCC(C)C(=O)O)c(OC)n4)c3C)c2C)ccc1CNCC(C)C(=O)O (stereo not drawn) )
Key: 7.00 to 8.00

Exercise: State its pIC50 on human PD-L1 (Homo sapiens (Human)): "CC(=O)NCCNCc1cc2nc(OCc3cccc(-c4cccc(COc5ccc6[nH]c(CNCCNC(C)=O)cc6n5)c4C)c3C)ccc2[nH]1"
Key: 7.00 to 8.00

Exercise: Provide value of pIC50 for this record tested with human PD-L1 (Homo sapiens (Human)): "COc1nc(-c2cccc(-c3cccc(NC(=O)c4cn(C)c(=O)n(C)c4=O)c3C)c2Cl)ccc1CN[C@@H]1CCCC[C@@H]1O"
Key: > 8.00

Exercise: Any idea what pIC50 came out for "COc1nc(-c2cccc(-c3cccc(Nc4nccc5nccnc45)c3Cl)c2Cl)ccc1CN1CC(O)C1" on human PD-L1 (Homo sapiens (Human))?
Key: > 8.00

Exercise: Field: pIC50 (human PD-L1 (Homo sapiens (Human))). Entry: CCOc1cc(NC2CCc3c(-c4ccccc4F)cccc32)c(Cl)cc1CN[C@@H](CO)C(=O)O (stereo partly drawn)
Key: 6.30 to 8.30

Exercise: Give recorded pIC50 with human PD-L1 (Homo sapiens (Human)) for the following compound: "COc1nc(-c2cccc(-c3cccc(NC(=O)c4cn(C)c(=O)n(C)c4=O)c3F)c2Cl)ccc1CNC[C@@H]1CCC(=O)N1"
Key: > 8.00

Exercise: API: value(readout=pIC50, system=human PD-L1 (Homo sapiens (Human))) for record "COc1nc(-c2cccc(-c3cccc(Nc4nc(C)nc5cccnc45)c3C)c2Cl)ccc1CN1CC(C)(C(=O)O)C1"
Key: > 8.00

Exercise: human PD-L1 (Homo sapiens (Human)) / pIC50 / "COc1nc(-c2cccc(-c3cccc(NC(=O)c4c[nH]c(=O)n(C)c4=O)c3C)c2Cl)ccc1CNC[C@@H]1CCC(=O)N1" : value?
Key: > 8.00

Exercise: Find the measured pIC50: item "COc1nc(-c2cccc(-c3cccc(Nc4nc(C)nc5cccnc45)c3C)c2Cl)ccc1CNCC(C)(C)C(N)=O" , target or system human PD-L1 (Homo sapiens (Human)).
Key: > 8.00

Exercise: Under human PD-L1 (Homo sapiens (Human)): pIC50 value of "COc1nc(OCc2cccc(-c3cccc(COc4ccc(CNCC(N)=O)c(OC)n4)c3Cl)c2Cl)ccc1CNCC(N)=O" ?
Key: > 8.00

Exercise: Hello, I am looking for reported pIC50 with human PD-L1 (Homo sapiens (Human)) for "CCc1nc(-c2cccc(-c3cccc(NC(=O)c4cn(C)c(=O)n(C)c4=O)c3Cl)c2Cl)ccc1CN1CC(C(=O)O)C1" . Could you help?
Key: > 8.00
